# Lookup of reported TGI keyed by entry
# System: CCRF-CEM leukemia
# Assay notes: NCI tumour cell line growth inhibition, 48 h
Result type: TGI

                                    compound    result
 0       Clc1ccc(C(SCc2ccccc2)SCc2ccccc2)cc1   > 10 µM
 1  CCOC(=O)c1sc2[n+](c1C)C(=O)/C(=C/c1ccc([N+](=O)[O-])cc1)S2  > 100 µM
 2  COC(=O)C(Cc1nc2ccccc2[nH]c1=O)C(=O)C(=O)Nc1ccc([N+](=O)[O-])cc1[N+](=O)[O-] (configuration not stated)   51.9 µM
 3               N#CCN/C=C\C(=O)c1ccc(Cl)cc1  > 100 µM
 4                  CCOc1cccc2ccc[n+](CC)c12  > 100 µM
 5  COC(=O)[C@H](Cc1c[nH]c2ccccc12)NC(=O)c1ccc(CNC(=O)/C=C/c2cccc(Oc3ccccc3)c2)cc1  > 100 µM
 6  CN1C(=O)C(=O)c2cc3c(c4c2c1cc1ccccc14)OCO3  > 100 µM
 7     COc1ccc2cc(CN3CCC(C4CCNCC4)CC3)ccc2c1   12.7 µM
 8                      CSc1n[n+]2c(s1)SCCC2  > 100 µM
 9  Cc1ccc(N(CC(=O)Nc2ccc(S(=O)(=O)N3CCC(N4CCCC4)CC3)cc2)S(=O)(=O)c2ccc(Cl)cc2)cc1   6.35 µM
10                 O=C(O)CCC(=O)c1ccc(Cl)cc1  > 100 µM
11  O=C1OC(O)C(Oc2c(Cl)cccc2Cl)=C1Cl (configuration not stated)     53 µM

----------
# Lookup of reported TGI keyed by entry
# System: NCI-H460 lung
# Assay notes: NCI tumour cell line growth inhibition, 48 h
Result type: TGI

>>> df
                                    compound  subject_of_test     result
 0  CCCCCCCCCCCCCCCCOC[C@@H](COC(c1ccccc1)(c1ccccc1)c1ccccc1)O[P+](=S)OC (stereo partly specified)    NCI-H460 lung     5.8 µM
 1                CC1(CCC(=O)OC2CCCCC2)OCCO1    NCI-H460 lung   > 100 µM
 2  Nc1ccn(C2OC(COC(=O)C34CC5CC(CC(C5)C3)C4)C(O)C2O)c(=O)n1 (stereo unspecified)    NCI-H460 lung  > 40.8 µM
 3  COc1ccc2c(c1)CC[C@H](O)/C2=C/c1cc(OC)c(OC)c(OC)c1    NCI-H460 lung  > 36.8 µM
 4  COC(=O)c1cc(O)c2c(c1C(=O)OC)C[C@H]1[C@@H]3CC=C4C[C@@H](O)CC[C@]4(C)[C@H]3CC[C@]21C    NCI-H460 lung    12.7 µM
 5  Cc1ccc2nc(-c3ccc(N4C(=O)C(Cl)C4c4ccc(Cl)cc4)cc3)sc2c1 (stereo unspecified)    NCI-H460 lung    46.2 µM
 6  C=C(Nc1ccc([N+](=O)[O-])cc1[N+](=O)[O-])c1c/c(=N\NC(N)=S)c2ccccc2o1    NCI-H460 lung   > 100 µM
 7  CN(C)C(=O)OC(Cn1cncn1)(Cn1cncn1)c1ccc(Cl)cc1Cl    NCI-H460 lung   > 100 µM
 8  CC(C)(C)C(=O)OCC1CCC(n2cnc3c(=O)[nH]c(N)nc32)O1 (stereo unspecified)    NCI-H460 lung   > 100 µM
 9  Cc1c2c(OCCN3CCCCC3)nn(C)c(=O)c2c(C)n1-c1ccccc1    NCI-H460 lung   > 100 µM
10  CC(=O)N=C1N(/C=C2\C(=O)Oc3ccccc3C2=O)C(=O)/C(=C/c2ccc(NC(C)=O)cc2)N1C    NCI-H460 lung   > 100 µM
11  COc1ccc(C2C3COc4ccccc4C3=NN2c2ccccc2)cc1 (stereo unspecified)    NCI-H460 lung   > 100 µM
12    COc1ccc(OC)c2c1[nH]c(=O)c1c3ncccc3cn21    NCI-H460 lung    3.39 µM
13  S=C(c1c[nH]c2ccccc12)N1CCN(Cc2ccccc2)CC1    NCI-H460 lung    67.6 µM
14  FC(F)(F)c1cccc(-c2nc3ccccc3c3c2[C@@]2(N4CCCC4)CCCC[C@@H]32)c1    NCI-H460 lung   > 100 µM
15  COc1c(O)cc2c(c1O)C(=O)/C(=C/c1ccc(O)cc1)CO2    NCI-H460 lung   > 100 µM

----------
# Lookup of reported TGI keyed by entry
# Test system: CCRF-CEM leukemia
# Assay notes: NCI tumour cell line growth inhibition, 48 h
Result type: TGI

>>> df
                                   molecule    subject_of_test    result
0  CN(/N=C/c1ccnc2ccccc12)c1ccc(Cl)cc1[N+](=O)[O-]  CCRF-CEM leukemia  > 100 µM
1  CC(C)(C)C(=O)OCC1CCC(n2cnc3c(=O)[nH]c(N)nc32)O1 (stereo not drawn)  CCRF-CEM leukemia  > 100 µM
2  CC(=O)OC1COC(Nc2nc(NCc3ccccc3)n(C)c(=O)c2N=O)C(OC(C)=O)C1OC(C)=O (stereo not drawn)  CCRF-CEM leukemia   > 10 µM

----------
# Tested on: SK-MEL-2 melanoma
# Assay notes: NCI tumour cell line growth inhibition, 48 h
Result type: TGI

In [3]: df
Out[3]:
                                    compound     result
 0  CCOP(=O)(OCC)C(C#N)Cc1ccco1 (configuration not stated)    > 10 µM
 1  C=C(Nc1ccc([N+](=O)[O-])cc1[N+](=O)[O-])c1c/c(=N\NC(N)=S)c2ccccc2o1   > 100 µM
 2     O=C(O)/C(Cc1ccc([N+](=O)[O-])cc1)=N\O   > 100 µM
 3  Cc1ccc(NC(=O)CSc2nc(=O)[nH]c3nc[nH]c23)cc1   > 100 µM
 4   COC(=O)Cc1ccc(Oc2cnc3cc(F)c(F)cc3n2)cc1   > 100 µM
 5    COc1ccc(OC)c2c1[nH]c(=O)c1c3ncccc3cn21   > 100 µM
 6          CCOC(=O)/C(C#N)=C/c1ccnc2ccccc12   > 100 µM
 7  O=C1CCCCCCCCCCC1CN1CCCCC1 (configuration not stated)   > 100 µM
 8   Cc1cccc(C)c1NC(=O)Nc1ccc(S(N)(=O)=O)cc1   > 100 µM
 9             O=c1c2cccc3cccc(c4n1CCN=4)c32   > 100 µM
10  CCCCCCCCCCC1OC([C@@H](O)CC[C@H](O)C2CC[C@@H](CCCCCCCC(O)CC3=CC(C)OC3=O)O2)CCC1O (some centres not stated)  > 18.1 µM
11  CN(/N=C/c1ccnc2ccccc12)c1ccc(Cl)cc1[N+](=O)[O-]   > 100 µM

----------
# Tested on: SK-MEL-28 melanoma
# Assay notes: NCI tumour cell line growth inhibition, 48 h
Result type: TGI

>>> print(df.to_string())
                                    molecule     result
 0  Cc1cc(CC(C)CC(C)(C)C)n(O)c(=O)c1 (stereo unspecified) (tested in a mixture with another compound)  > 63.2 µM
 1  CCCCCCCCCCCCOCCCOP(=O)([O-])OCC[N+](C)(C)C  > 92.7 µM
 2  C[N+](C)(C)CC(=O)N/N=C(\C(=O)NC1=C(Cl)C(=O)c2ccccc2C1=O)C(C#N)c1csc(-c2ccc([N+](=O)[O-])cc2)n1 (stereo unspecified)   > 100 µM
 3  N#Cc1c(-c2ccccc2)c(N=Nc2ccc(Cl)cc2)c(=O)n2c1[nH]c1ccccc12   > 100 µM
 4  O=[N+]([O-])C1Cc2ccccc2OC1c1ccccc1 (stereo unspecified)   > 100 µM
 5  COC(C(=O)NCCCCNC(=O)C(OC)c1ccccc1)c1ccccc1 (stereo unspecified)   > 100 µM
 6  O=C(N/N=C(/COc1ccc([N+](=O)[O-])cc1)N=Cc1ccncc1)c1ccncc1   > 100 µM
 7  CNC(=O)Cc1nc(-c2cccc(NS(=O)(=O)c3c(F)cccc3F)c2F)c(-c2ccnc(Nc3ccccc3)n2)s1    > 50 µM
 8  CCCCON1C[C@H](OC(C)=O)C(OC(C)=O)[C@H](OC(C)=O)C1 (stereo partly specified)   > 100 µM
 9  O=C(O)Cc1ccc2[nH]c(O)c(C3=Nc4ccccc4C3=O)c2c1   > 100 µM
10  c1c[nH]c(C23C4C5C6C4C2C6C53)n1 (stereo unspecified)   > 100 µM
